Where do the numbers come from? From patent US20240270821A1.

target: hGLP-1R (Homo sapiens, UniProt P43220); experiment: Functional cAMP activation in the presence of 0.1% casein (no HSA); format: cell-based; details: in the presence of 0.1% casein (no HSA); geometric mean; read-out: Relative cAMP EC50, hGLP-1R;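 note: intracellular cAMP rise after 30 min at 37 °C read by HTRF, normalized between buffer only (0%) and maximal control ligand (100%), four-parameter variable-slope fit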
Sequence (P43220 24-463): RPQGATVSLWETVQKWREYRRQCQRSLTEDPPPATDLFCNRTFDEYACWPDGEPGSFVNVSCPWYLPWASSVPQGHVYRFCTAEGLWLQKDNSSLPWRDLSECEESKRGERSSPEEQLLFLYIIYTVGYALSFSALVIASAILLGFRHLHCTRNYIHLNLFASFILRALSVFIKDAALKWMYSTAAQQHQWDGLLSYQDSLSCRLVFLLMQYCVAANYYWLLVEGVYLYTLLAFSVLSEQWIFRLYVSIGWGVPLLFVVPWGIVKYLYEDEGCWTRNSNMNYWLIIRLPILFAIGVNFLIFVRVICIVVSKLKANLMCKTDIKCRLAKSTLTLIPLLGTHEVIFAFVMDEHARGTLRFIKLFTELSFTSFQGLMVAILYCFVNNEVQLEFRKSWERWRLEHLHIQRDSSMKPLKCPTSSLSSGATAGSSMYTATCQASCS
Starred links: 1 amine or outer side, 2 acyl side, 3 side chain; linkers in the order of their positions; H or OH if unused. Non-standard residues stand in square brackets, D forms with d. Groups on a side chain read outwards from the residue. *: point of attachment. C18 diacid = O=C(O)CCCCCCCCCCCCCCCCC(=O)*; γGlu = O=C(O)[C@H](CCC(=O)[*:2])N[*:1]; αMe4Pal = C[C@](N)(Cc1ccncc1)C(=O)O; 4Pal = N[C@@H](Cc1ccncc1)C(=O)O; αMeL = CC(C)C[C@](C)(N)C(=O)O; Orn = NCCC[C@H](N)C(=O)O; AEEA = NCCOCCOCC(=O)O; Aib = CC(C)(N)C(=O)O
Endpoint Label: EC50 (nM)
Give bare numbers, in nM.

In the examples that follow, each entry is paired with its recorded EC50.
- Substance: "H-Y[Aib]QGTFTSD[4Pal]S[Orn][αMeL]LD[Orn]K([γGlu-γGlu-C18 diacid])AQ[αMe4Pal]AFIE[αMe4Pal]LIE[Aib]GPSSGEPPPSGS-NH2 [Example 991]"
  Recorded Measurement: 3.91
- Substance: "H-Y[Aib]QGTFTSD[4Pal]SQ[αMeL]LDKK([AEEA-γGlu-C18 diacid])AQ[αMe4Pal]AFIE[αMe4Pal]LIEGGPSSGAPPPSGS-NH2 [Example 948]"
  Recorded Measurement: 2.67

Query :: Need EC50, item H-Y[Aib]QGTFTSD[4Pal]SQ[αMeL]LDKK([γGlu-γGlu-C18 diacid])AQ[αMe4Pal]AFIE[αMe4Pal]LIE[Aib]GPSSGEPPPSGE-NH2 [Example 1123]
Result :: 4.47
